The origin of these recorded values is patent US20220298237A1.

system_under_test: T1, oligopeptide SGPNGTAGIFATYPS (SEQ ID NO: 94)
T1 construct: Synthetic peptide, part of Loop C of AQP3
T1 peptide: SGPNGTAGIFATYPS
method: ELISA on coated peptide
Experimental: To determine the important amino acid residues of an epitope in Loop C involved in binding to specific AQP3 antibody clones, peptides of varying lengths were produced. The sequences of these peptides are shown in column 2 of Table 4. The various peptides and AQP3 antibody clones were subjected to ELISA binding analyses. […] The microtiter wells (Costar 2690) were coated with 50 μL of each peptide at 4° C. overnight. […]
value_type: binding signal (plate reader)
Please respond with just the number, no unit label.

binder="Antibody J (antibody, mouse IgG2a, kappa, V domains shown, also called anti AQP3 antibody J) VH: QVHLQQSGTELVKPGASVKLSCEASGYTFTSYWMHWVKQRPGQGLEWIGNINPSNGGTNYNEKFKSKATLTVDKSSSTAYMQLSSLTSEDSAVYYCARGGIYYGNYDYYAMDYWGQGTSVTVSS VL: DIVMTQAAPSVPVTPGESVSISCRSSKSLLHSNGNTYLYWFLQRPGQSPQLLIYRVSNLASGVPDRFSGSGSGTAFTLRISRVEAEDVGVYYCMQHLEYPFTFGGGTKLEIKR" meas_value=0.043
binder="BC-B10 (IgG) (antibody, V domains shown, also called anti AQP3 antibody BC-B10) VH: QSVEESGGRLVTPGAPLTLTCTVSRFSLSSYAMTWVRQAPGKGLEWIGIINNDVISSTWYASWVKGRFTISKTSTTMELKMTSLTTEDTATYFCARGGTSGYDIWGPGTLVTVSS VL: AIKMTQTPSPVSAAVGGTVTINCQSSPSVYKNYLSWYQQKPGQPPKLLIYGASTLASGVPSRFKGSGSGTQFTLTISDVQCDDAATYYCAGGYIGSRDIFSFGGGTEVVVK" meas_value=3.76

Turning now to a further binder:
Task item: Requested read-out: binding signal (plate reader). Entry: SC-B6 (IgG) (antibody, V domains shown, also called anti AQP3 antibody SC-B6) VH: QSVKESGGRLVTPGAPLTLTCTVSGFSLNNYAMTWVRQAPGKGLEWIGIINNDGISSTWYASWVKGRFIISKTSTTVDLKMTSLTTEDTATYFCARGGTSGYDIWGPGTLVTVSL VL: AQGPTQTPSPVSAAVGGTVTINCQSSPSVYKNYLSWYQQKPGQPPKLLIYGASTLASGVPSRFKGSRSGTQFTLTISDVQCDDAATYYCAGGYIGSRDIFSFGGGTEVVVK
Reply: 2.02
